Target: T1, human SLC34A2 (human, UniProt O95436 1-690)
T1 construct: whole, on cells; also called human solute carrier 34 A2; NaPi2b
T1 sequence (looked up): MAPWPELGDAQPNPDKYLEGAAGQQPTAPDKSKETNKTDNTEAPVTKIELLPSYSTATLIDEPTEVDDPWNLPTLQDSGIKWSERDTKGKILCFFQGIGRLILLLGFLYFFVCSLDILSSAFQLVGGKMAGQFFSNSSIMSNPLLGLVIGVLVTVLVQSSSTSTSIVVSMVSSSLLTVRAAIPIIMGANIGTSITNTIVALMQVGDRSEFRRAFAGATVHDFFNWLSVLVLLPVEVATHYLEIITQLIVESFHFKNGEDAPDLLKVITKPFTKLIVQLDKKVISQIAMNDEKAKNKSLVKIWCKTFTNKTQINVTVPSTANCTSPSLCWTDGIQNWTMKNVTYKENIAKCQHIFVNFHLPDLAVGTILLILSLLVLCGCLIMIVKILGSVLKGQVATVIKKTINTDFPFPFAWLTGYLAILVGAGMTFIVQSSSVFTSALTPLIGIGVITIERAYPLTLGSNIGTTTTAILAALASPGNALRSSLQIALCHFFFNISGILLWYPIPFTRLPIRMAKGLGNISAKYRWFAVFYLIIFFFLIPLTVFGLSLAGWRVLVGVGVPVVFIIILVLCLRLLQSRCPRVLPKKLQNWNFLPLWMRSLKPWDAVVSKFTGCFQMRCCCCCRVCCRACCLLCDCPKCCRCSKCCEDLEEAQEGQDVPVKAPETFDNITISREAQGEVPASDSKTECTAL
Assay: FACS, RMG-1 cells
endpoint_name: EC50 (nM)

{"columns": ["binder", "experimental_result"],
 "data": [
  ["91C9F1.p1.z6 hIgG1 (antibody, V domains shown, humanized hIgG1) VH: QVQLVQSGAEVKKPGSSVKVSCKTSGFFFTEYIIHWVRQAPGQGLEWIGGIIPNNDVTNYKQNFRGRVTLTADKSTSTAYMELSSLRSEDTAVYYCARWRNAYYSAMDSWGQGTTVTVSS VL: DIQMTQSPSSLSTSVGDRVTITCTASQDVGTAVAWYQQKPGKSPKLLIYWASTRHTGVPERFSGSGSGTDFTLTISSLQPEDVATYFCQQYRTSPLTFGGGTKVEIK", 3.03],
  ["30H9B8F9 VH_P1/VL hIgG1 (antibody, V domains shown, PTM-derisked chimeric, hIgG1; that P1 is the N=>S version follows from the humanized .p1 chains; also called 30H9B8F9.p1 hIgG1) VH: QVQLQQPGAELVKPGASVKMSCKTSGYTFTTNNMHWVKQTPGQGLEWIGAIYPGSGATAYNQKFKGKATLTADKSSSTAYMQLSSLTSEASAVYYCARGMYGHGAMDYWGQGTSVIVSS VL: DIVMTQSHKFMSRSVGDRVRITCKASQDVGTAVAWYQQKPGQSPKLLIYWATTRHSGVPDRFTGSGSGTDFIFTISNVQSEDLADYFCQQYSSNPLTFGAGTKLELK", 1.09]
]}
